ASSAY_TARGET: KRAS G13D (Homo sapiens, UniProt P01116+P62937, G13D)
Sequence (P01116 1-169 isoform P01116-2 G13D limits assumed): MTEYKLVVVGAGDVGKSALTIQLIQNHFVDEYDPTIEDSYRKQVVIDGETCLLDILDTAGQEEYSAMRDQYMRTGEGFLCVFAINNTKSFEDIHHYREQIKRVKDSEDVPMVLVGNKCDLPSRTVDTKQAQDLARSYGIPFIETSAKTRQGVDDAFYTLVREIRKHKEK
Sequence (P62937 whole entry): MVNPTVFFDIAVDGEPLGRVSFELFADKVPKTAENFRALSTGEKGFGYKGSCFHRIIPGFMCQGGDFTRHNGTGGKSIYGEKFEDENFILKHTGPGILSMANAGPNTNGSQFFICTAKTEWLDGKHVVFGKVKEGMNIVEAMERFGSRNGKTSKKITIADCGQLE
PROCEDURE_DETAILS: Disruption of BRAF RBD interaction with Ras (FRET / MOA assay, with Cyclophilin A)
Type: biochemical
SETUP_CONDITIONS: KRAS G13D; read-out: KRAS G13D FRET data IC50
pIC50: −log10 of the molar value.
QUANTITY_KIND: pIC50

>>> result("CCn1c(-c2cccnc2[C@H](C)OC)c2c3cc(ccc31)-c1csc(n1)C[C@H](NC(=O)[C@H](C(C)C)N(C)C(=O)N1C3CC1CN(C)C3)C(=O)N1CCC[C@H](N1)C(=O)OCC(C)(C)C2")
"5.00 to 6.00"
>>> result("CCn1c(-c2cccnc2[C@H](C)OC)c2c3cc(ccc31)-c1cccc(c1)C[C@H](NC(=O)[C@H](C(C)C)N(C)C(=O)[C@H]1CCN(C(=O)C#CC3CC(F)(F)CN3C)C1)C(=O)N1CCC[C@H](N1)C(=O)OCC(C)(C)C2 (stereo partly drawn)")
"< 5.00"
>>> result("CCn1c(-c2cccnc2[C@H](C)OC)c2c3cc(ccc31)-c1csc(n1)C[C@H](NC(=O)[C@H](C(C)C)N(C)C(=O)[C@H]1CCN(C(=O)CN)C1)C(=O)N1CCC[C@H](N1)C(=O)OCC(C)(C)C2")
"5.00 to 6.00"
>>> result("C=CC(=O)N1CC[C@H](C(=O)N(C)[C@H](C(=O)N[C@H]2Cc3nc(cs3)-c3ccc4c(c3)c(c(-c3cccnc3COC)n4CC)CC(C)(C)COC(=O)[C@@H]3CCCN(N3)C2=O)C(C)C)C1")
"< 5.00"
>>> result("CCn1c(-c2cccnc2[C@H](C)OC)c2c3cc(ccc31)-c1csc(n1)C[C@H](NC(=O)[C@H](C(C)C)N(C)C(=O)N(C)CC(C)C)C(=O)N1CCC[C@H](N1)C(=O)OCC(C)(C)C2")
"6.00 to 7.00"
>>> result("C=CC(=O)N1CC[C@H](C(=O)N(C)[C@H](C(=O)N[C@H]2Cc3cc(O)cc(c3)-c3ccc4c(c3)c(c(-c3cc(CN(C)C)cnc3COC)n4CC)CC(C)(C)COC(=O)[C@@H]3CCCN(N3)C2=O)C(C)C)C1")
"6.00 to 7.00"
>>> result("CCn1c(-c2cccnc2[C@H](C)OC)c2c3cc(ccc31)-c1csc(n1)C[C@H](NC(=O)[C@H](C(C)C)N(C)C(=O)N1CC([C@@H](C)NC)C1)C(=O)N1CCC[C@H](N1)C(=O)OCC(C)(C)C2 (atropisomer, axis not shown)")
"6.00 to 7.00"
>>> result("CCn1c(-c2cccnc2[C@H](C)OC)c2c3cc(ccc31)-c1csc(n1)C[C@H](NC(=O)[C@H](C(C)C)N(C)C(=O)N1CC[C@@H]1CN(C)C)C(=O)N1CCC[C@H](N1)C(=O)OCC(C)(C)C2")
"6.00 to 7.00"
>>> result("C=CC(=O)N1C[C@@H](C(=O)N(C)[C@H](C(=O)N[C@H]2Cc3cccc(c3)-c3ccc4c(c3)c(c(-c3cccnc3[C@H](C)OC)n4CC)CC(C)(C)COC(=O)[C@@H]3CCCN(N3)C2=O)C(C)C)[C@@H](C(F)(F)F)C1")
"5.00 to 6.00"

* * *

Below: a set of entries, each annotated with reported IC50.
ASSAY_TARGET: KRAS G12C (Homo sapiens, UniProt P01116+P62937, G12C)
Sequence (P01116 1-169 isoform P01116-2 G12C limits assumed): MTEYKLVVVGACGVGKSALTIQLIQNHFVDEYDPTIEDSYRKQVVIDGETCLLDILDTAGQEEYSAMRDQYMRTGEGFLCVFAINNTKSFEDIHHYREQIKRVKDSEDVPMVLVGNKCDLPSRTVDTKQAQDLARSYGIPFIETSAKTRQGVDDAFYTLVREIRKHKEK
Sequence (P62937 whole entry): as the sequence (P62937 whole entry) above
PROCEDURE_DETAILS: Ras-Raf disruption / FRET / MOA assay (BRAF RBD)
Assay type: biochemical
SETUP_CONDITIONS: KRAS G12C FRET data IC50, Ras-Raf disruption, with Cyclophilin A
QUANTITY_KIND: IC50

>>> result("CCn1c(-c2cc(N3CCN(C)CC3)cnc2[C@H](C)OC)c2c3cc(ccc31)-c1cc(O)cc(c1)C[C@H](NC(=O)[C@H](C1CCCC1)N(C)C(=O)CN(C)C(=O)[C@H]1CN1)C(=O)N1CCC[C@H](N1)C(=O)OCC(C)(C)C2 [Example 209]")
"< 10 nM"
>>> result("CCn1c(-c2cccnc2[C@H](C)OC)c2c3cc(ccc31)-c1cc(O)cc(c1)C[C@H](NC(=O)[C@H](C(C)C)N(C)C(=O)CN(C)C(=O)[C@@H]1CN1CCOC)C(=O)N1CCC[C@H](N1)C(=O)OCC(C)(C)C2 (some centres unmarked) [Example 160]")
"10 to 100 nM"

* * *

// values below are reported pIC50
ASSAY_TARGET: KRAS G13D (Homo sapiens, UniProt P01116+P62937, G13D)
PROCEDURE_DETAILS: Disruption of BRAF RBD interaction with Ras (FRET / MOA assay, with Cyclophilin A)
Assay type: biochemical
SETUP_CONDITIONS: KRAS G13D; read-out: KRAS G13D FRET data IC50
Text: This protocol may also be executed substituting other Ras proteins or nucleotides. The purpose of this biochemical assay was to measure the ability of test compounds to facilitate ternary complex formation between a nucleotide-loaded K-Ras isoform and Cyclophilin A; the resulting ternary complex disrupts binding to a BRAF^RBD construct, inhibiting K-Ras signaling through a RAF effector. Data is reported as IC50 values. […]
pIC50: −log10 of the molar value.
QUANTITY_KIND: pIC50

>>> result("CCn1c(-c2cc(N3CCN(C)CC3)cnc2[C@H](C)OC)c2c3cc(ccc31)-c1csc(n1)C[C@H](NC(=O)[C@H](C1CCCC1)N(C)C(=O)N(C)C)C(=O)N1CCC[C@H](N1)C(=O)OCC(C)(C)C2 (atropisomer, axis not shown) [Example A526]")
"6.00 to 7.00"
>>> result("CCn1c(-c2cccnc2[C@H](C)OC)c2c3cc(ccc31)-c1csc(n1)C[C@H](NC(=O)[C@H](C(C)C)N(C)C(=O)N1CC3(CCCN(C)C3=O)C1)C(=O)N1CCC[C@H](N1)C(=O)OCC(C)(C)C2 [Example A453]")
"< 5.00"
>>> result("CCn1c(-c2cccnc2[C@H](C)OC)c2c3cc(ccc31)-c1csc(n1)C[C@H](NC(=O)[C@H](C(C)C)N(C)C(=O)N1C[C@H]3OCCN(C)[C@H]3C1)C(=O)N1CCC[C@H](N1)C(=O)OCC(C)(C)C2 (atropisomer, axis not shown) [Example A451]")
"5.00 to 6.00"
>>> result("CCn1c(-c2cccnc2[C@H](C)OC)c2c3cc(ccc31)-c1csc(n1)C[C@H](NC(=O)[C@H](C(C)C)N(C)C(=O)N1C[C@H]3CN(C)C[C@H]3C1)C(=O)N1CCC[C@H](N1)C(=O)OCC(C)(C)C2 [Example A313]")
"6.00 to 7.00"
>>> result("CCn1c(-c2cnccc2COC)c2c3cc(ccc31)-c1cc(O)cc(c1)C[C@H](NC(=O)[C@H](C(C)C)N(C)C(=O)[C@@H]1CCCO1)C(=O)N1CCC[C@H](N1)C(=O)OCC(C)(C)C2 [Example A91]")
"5.00 to 6.00"
>>> result("CCn1c(-c2cccnc2[C@H](C)OC)c2c3cc(ccc31)-c1cc(O)cc(c1)C[C@H](NC(=O)[C@H](C(C)C)N(C)C(=O)[C@H]1CCN(C(=O)[C@@]3(C)CCCN3)C1)C(=O)N1CCC[C@H](N1)C(=O)OCC(C)(C)C2 [Example A135]")
"7.00 to 8.00"
>>> result("CCn1c(-c2cccnc2[C@H](C)OC)c2c3cc(ccc31)-c1csc(n1)C[C@H](NC(=O)[C@H](C(C)C)N(C)C(=O)N1CC3(CC(N(C)CCOC)C3)C1)C(=O)N1CCC[C@H](N1)C(=O)OCC(C)(C)C2 (atropisomer, axis not shown) [Example A532]")
"6.00 to 7.00"
>>> result("CCn1c(-c2cc(N3CCN(C)CC3)cnc2[C@H](C)OC)c2c3cc(ccc31)-c1csc(n1)C[C@H](NC(=O)[C@H](C(C)C)N(C)C(=O)N1CCOCC1)C(=O)N1CCC[C@H](N1)C(=O)OCC(C)(C)C2 (atropisomer, axis not shown) [Example A555]")
"6.00 to 7.00"
>>> result("CCn1c(-c2cccnc2[C@H](C)OC)c2c3cc(ccc31)-c1csc(n1)C[C@H](NC(=O)[C@H](C(C)C)N(C)C(=O)O[C@H]1CCOC1)C(=O)N1CCC[C@H](N1)C(=O)OCC(C)(C)C2 [Example A210]")
"5.00 to 6.00"
>>> result("CCn1c(-c2cccnc2[C@H](C)OC)c2c3cc(ccc31)-c1cc(O)cc(c1)C[C@H](NC(=O)[C@H](C(C)C)N(C)C(=O)[C@H]1CCC[C@H]1N)C(=O)N1CCC[C@H](N1)C(=O)OCC(C)(C)C2 (atropisomer, axis not shown) [Example A131]")
"7.00 to 8.00"
>>> result("CCn1c(-c2cccnc2[C@H](C)OC)c2c3cc(ccc31)-c1csc(n1)C[C@H](NC(=O)[C@H](C(C)C)N(C)C(=O)N1CC3(CC(O)C3)C1)C(=O)N1CCC[C@H](N1)C(=O)OCC(C)(C)C2 (atropisomer, axis not shown) [Example A510]")
"6.00 to 7.00"
>>> result("CCn1c(-c2cccnc2[C@H](C)OC)c2c3cc(ccc31)-c1csc(n1)C[C@H](NC(=O)[C@H](C(C)C)N(C)C(=O)N1CCN(C(=O)CO)CC1)C(=O)N1CCC[C@H](N1)C(=O)OCC(C)(C)C2 (atropisomer, axis not shown) [Example A306]")
"6.00 to 7.00"
>>> result("CCn1c(-c2cccnc2[C@H](C)OC)c2c3cc(ccc31)-c1csc(n1)C[C@H](NC(=O)[C@H](C(C)C)N(C)C(=O)N1CCC13CCN(C)CC3)C(=O)N1CCC[C@H](N1)C(=O)OCC(C)(C)C2 [Example A273]")
"6.00 to 7.00"
>>> result("CCn1c(-c2cnccc2COC)c2c3cc(ccc31)-c1cc(O)cc(c1)C[C@H](NC(=O)[C@H](C(C)C)N(C)C(=O)N1CC(OC)C1)C(=O)N1CCC[C@H](N1)C(=O)OCC(C)(C)C2 [Example A30]")
"5.00 to 6.00"
>>> result("CCn1c(-c2cnccc2COC)c2c3cc(ccc31)-c1cc(O)cc(c1)C[C@H](NC(=O)[C@H](C(C)C)N(C)CC(F)(F)F)C(=O)N1CCC[C@H](N1)C(=O)OCC(C)(C)C2 [Example A77]")
"5.00 to 6.00"
>>> result("CCn1c(-c2cc(N3CCN(C)CC3)cnc2[C@H](C)OC)c2c3cc(ccc31)-c1csc(n1)C[C@H](NC(=O)[C@H](C(C)C)N(C)C(=O)N1CCC13CCN(C)CC3)C(=O)N1CCC[C@H](N1)C(=O)OCC(C)(C)C2 (atropisomer, axis not shown) [Example A483]")
"6.00 to 7.00"
